Taken from the nanobody polyreactivity screen of Harvey et al. (2022).

test: yeast display, Sf9 membrane polyspecificity reagent, FACS + sequencing; frameworks hold sequencing errors
ATTRIBUTE_MEASURED: polyreactivity (PSR sort gate)

QVQLVESGGGLVQAGGSLRLSCAASGYIFVNAMGWYRQAPGKERELVAAISSGRSTHYADSVKGRFTISLDNAKNTVYLQLNSLKPEDTAVYYCNADLYSWYWAGYNYWGQGTQVTVSS :: high polyreactivity
QVQLVESGGGLVQAGGSLRLSCAASGITFWTYAMGGYRQAPGKERELVAAISKTVGSTFYADSVKGRFTISRDNAKNTVYLQMNSLKPEDTEVYYCNARRRRTVGWQYNYWGQGTQVTVSS :: high polyreactivity
QVQLVESGGGLVQAGGSLRLSCAASGSIFGYYAMGWYRQAPGKERELVAAITWRGGTYYADSVKGRFTISRDNAKNTVYLQMNSLKPEDTAVYYCAAPRLATYQWYDYWGQGTQVTVSS :: high polyreactivity
QVQLVESGGGLVQAGGSLRLSCAATGRTFGYSPMGSYRPAPGKERELVAAISRRGGSTYYADSVKGRFIISRDNAKNTVYLQMNSLKPEDTAVYYCAKGHQWGLKGGYDYWGQGTQVTVSS :: high polyreactivity

====

assay: yeast display, Sf9 membrane polyspecificity reagent, FACS + sequencing; frameworks hold sequencing errors
ATTRIBUTE_MEASURED: polyreactivity (PSR sort gate)

QVQLVESGGGLGQAGGSLRLSCAASGSIFAVNAMGWYRPAPGKERELVAGINSSGGSTHYADSVKGRFTISRDNAKNTVYFQMNSLKPEDTAVYYCAADWLRPAYYAVASLVKSDYWGQGTQVTVSS :: low polyreactivity
QVQLVESGGGLVQAGGSLRLSCAASGGIFVLNAMGWYRQAPGKERELVATITSSGGSTYYADSVKGRFTISRDNAKNTVYLQMNSLKPEDTAVYYCNADWYLWSTFAQGYGYWGQGTQVTVSS :: high polyreactivity
QVQLVESGGGLVQAGGSLRISCAASGSIFRINAMGWYRQAHGKEMELVAAITASGDRTYYADSVKGRFTISRDNAKNTVYLQMNSLKPEDTAVFYCAVDSYYPASSLVAFPYAPRYDYWGQGTQVTVSS :: low polyreactivity
QVQLVESGGGLVQAGGSLRLSCAASGSTLRGYVMGWYRQAPGTERELVAAITQRAGSTYYADSVKGRFTISRDNAKNTVYLQMNSLKPEDTAVYYCRRFYFGKYDYWGQGTQVTVSS :: high polyreactivity

====

assay: yeast display, Sf9 membrane polyspecificity reagent, FACS + sequencing; frameworks hold sequencing errors
ATTRIBUTE_MEASURED: polyreactivity (PSR sort gate)

QVQLVESGGGLLHAGGSLRLSCAASGLIFSDYVMGWYRQAPWKERELVAGITTGGSTKYADSVKWRFTISRDNAKTTVYLQMNSLKPEDTAVYYCAVGKYNYRGSWDYYWGQGTQVTLSS :: high polyreactivity
QVQLVESGGGLVQAGGSLRLSCAASGRTFRYNTMGWYRQAPGKERELVAAITRSGGTTYYADSVKGRFTISRDNAKNTVYLQMNSLKPEDTSVYYCAAEGQAVRKSARDVFFEEFDYWGHGTQVTVSS :: low polyreactivity
QVQLVESGGGLVQAGGSLRLSCAASGFTFPRYAMGWYRQAPGKERELVAVITRRGGSTYYADSVKGRFTISRDNAKNTVYLQMNSLKPEDTAVYDCAASDPSNKSSRPGYSYDSDSWGQGTQVTVSS :: high polyreactivity
QVQLVESGGGLVQAGGSLRLSCAASGRTLGIYAMGWYRQAPGKERELVADISRDSSTYYADSVKGRFTISRDNAKNTVYLQKNSLKPEDTAVYYCNADQTPRDVTDWWYDYDYWGQGSQVTVSS :: low polyreactivity
QDQLVESGGGLVQAGGSLRLSCAASVFIFYSYTRGWYRQAPGKERELVATISSNGGRTYYADSVKGRFTISRDNAKNTVYLQMNSLKPEDTAVYYCATDVPHGYYWSYGDYYCGQGTQVTVSS :: low polyreactivity

Requested read-out: polyreactivity (PSR sort gate). Entry: QFKLVESGGVLVKEGGRLRLICAASGSTFDENDMGRYRQAPGKEMEIVAVIYIGTSTNYADSVKGRFTISRDNAKNTVYLQMNSLKPEDTAVYYCAADVPGSYLVAIVGNAFNYWGQGTQVTVSS
low polyreactivity

Note, next up: QVQLVESGGGLVQAGGSLRLSCAASGSIFGPYAMGWYRPAPGKEREFVAAISGSGGSTYYEDSVKGRFTISRDNAKNTVYLQKNSLTPEDTAVYYCAARQAYVNRGRFRGATLDYWGQGTQVTVSS
high polyreactivity

Note, next up: QVHLVESGGGLVQAGGSLRLSCAASGGTFSVYGMGWYRPAPGKERELVAAITVTGGRTYYADSVKGRFTISRDNAKNTVYLQMNSLKPVDSAVYYCNTLPWSRTKRDYWGQGTQVTVSS
low polyreactivity

Note, next up: QVQLVESGGGLVQAGASLRLSCAASGSIIDDYAMGWYRQAPGKERELVAAITYSGGTTYYADSVKGRFTISRDNAKNTVYLQLNSLKREDTAVYYCAAEWRVYYATYGYWGQGTQVTVSS
high polyreactivity

====

test: yeast display, Sf9 membrane polyspecificity reagent, FACS + sequencing; frameworks hold sequencing errors
ATTRIBUTE_MEASURED: polyreactivity (PSR sort gate)

In the examples that follow, each entry is paired with its recorded polyreactivity (PSR sort gate).
QVQLVESGGGLVQAGGSLRLSCAASGFTFGSYAMGWYRQAPGKEREFVAAIRRSGSSTYYADSVKGRFTISRDYAKNTVYLQMNSLKPEDTAVYYCAADVYRRLRRYRYYYWGQGTQVTVSS :: low polyreactivity
QLQLEESGGGLVQAGGSLRLSCAASRRIIVGYAKGRYRQAPGKEREFVAAITFRGGTTYYADSVKGRLTISRDNAKNTVYLQMNSLNQEDSAVYYCAVPHYLYSVEFGYWGQGTQVTVSS :: low polyreactivity
HVQLVESGGGLVQAGGSLRISCAASGFTFRYYAMGWYRQAAGKEMELVAAITSSGGRTYYADSVKGRFTISRDNAKNTVYLQMNSLKPEDTAVYYCNAAYGYVSRVYYLIEHDYWGHGTQVTVSS :: high polyreactivity
QVQLVESGGGLVQAGGSLRLSCAASGSTFNGNVMGWYRQAPGKDRELVAGISKSGGTTYYADSVKGRFTISRDNAKNTVYLQMNSLKPEDTAVYYCDARGRVRYYPQYDYWGQGTQVTVSS :: high polyreactivity
QVQLVESGGGLVQAGGSLRLSCAASGRIFSYNAMGWYRQAPGQERELVAAITTGGSTYYADSVKGRFTISRDNAKNTVYLQMNSLKPEDTAVYYCNKLGYYYDRRYDYWRQGTQVTVSS :: high polyreactivity
QVQLVESGGGLVQAGGSLRLSCAASGITFQNYAMGWYRQAPGKERELVAAITGRGGSTYYADSVKGRFTISRDNAKHTVYLQMNSLKPEDTAVYYCATDRRGYRDDYWGQGTQVTVSS :: high polyreactivity
QVQLVESAGGLVQAGGSLRLSCAASGFIFPRYAMGWYRQAPGKERELVAAISYSGGSTYYADSVKGRFTISRDNAKNTVYLQMNSLKPEDTAVYYCNAYFLSQYQRAYRDDYWGQGTQVTVSS :: high polyreactivity
QVQLVESGGGLVQAGGSLRLSCAASGRTLVYYAMGWYRQAPGKERELVAAITWRGGRTYYADSVKGRFTISRDNAKNTVYLQMNSLKPEDTAVYYCAKDGGHTGDYWGQGTQVTVSS :: low polyreactivity

Requested read-out: polyreactivity (PSR sort gate). Entry: QVQLVESGGGLVQAGGSLRLSCAASGSIMGWSRQAPGTERELVAAISRGGSTYYADSVKGRFTISRDNAKNTVYLQMNSLKPEDTAVYYCAAKTGGSRSRFEYWGQGTQVTVSS
high polyreactivity

====

assay: yeast display, Sf9 membrane polyspecificity reagent, FACS + sequencing; frameworks hold sequencing errors
ATTRIBUTE_MEASURED: polyreactivity (PSR sort gate)

In the examples that follow, each entry is paired with its recorded polyreactivity (PSR sort gate).
QVQLVESGGGLVQAGGSLRLSCAASGSIFVDNAMGWYRQATGKERELVAAISASGVTTYYADSVKGRFTISRDNAKNTVYLQMNSLKPEDTAVYYCNADYGSDDDVVRYDYWGQGTQVTVSS :: low polyreactivity
QVQLVESGGGLVQAGGSLRLSCAASGSILYPTAMGWYTQAPGKEREFVAGITSSGSTYYADSVKGRFTISRDNAKNTVDDQMNSLKPDDTAVYYCATSVYRTYGNSVHRMNYWGQGTQVTVSS :: high polyreactivity
QVQLVESGGGLVQAGGSLRLSCAASGSIYHPYALGWYRQAPGKERELVAAISKSGGNTYYADSVKGRFTISRDNAKNTVYLQMNCLKPEDTAVYYCAALDYWGQGTQVTVSS :: low polyreactivity
QVQLVESGGGLVQAGGSLRLSCAASGRIFIYNAMGWYRQATGKERELVAAISYRGGSTYYADSVKGRFTISRDNAKNTVYLQMNSLKPEDTAVYYCNAKIVQYGAHNYWGQGTQVTVSS :: high polyreactivity
QVQLVESGGGIVQAGGSLRLSCAASGFIFYWNAMGRYRQAPGKERELVAGITSGGDTNYADSVKGRFTISRDNAKITVYLQMNSLKPEDTAVYYCAAEGFRGYGYWGQGTQVTVSS :: low polyreactivity
QVQLVESGGGLVQAGGSLRFSCAASGIIFRIYAMGWYRQAPGKEREFVAAISGSGDSTYYADSVKGRFTISRDNAKNTVNLQMNSLKPEDSAVYYCAADWTLVYYHEDYWGQGSQVTVSS :: low polyreactivity
QFQLVESGGGLVQAGGSLRLSCAASGRTFKVYAMGWYRQAPGKERELVAAITGGGSTNYADSEKGRFTISRDNAKNTVYLQMNRLKAEDTAVYYGNARYYYRLVKWSRFSSYDYWGQGTQVTVSS :: low polyreactivity
QVQLVESGGGLVQAGGSLRLSCAASGIIFKSYAMGWSRQAPGKERELVAAITKRGGSTYYADSVKGRFTISRDNAKNTVYLQMNSLKPEDTAVYYCAADDGVGNTDDYWGQGTQVTVSS :: high polyreactivity
QVQLVESGGGLVQAGGSLRLSCAASGRIFYPYAMGWYRQAPGKESEFVAAIRWSSGSTYYADSVKGRFTISRDNAKNTVYLQMNSLKPEDTAVYYCAAEGYDSYSYDYWGQGTQVTVSS :: high polyreactivity

Could you now consider this next sequence?
Requested read-out: polyreactivity (PSR sort gate). Entry: QVQLVESGGGLVQAGGSLRLSCAASGLIFPDYDMGWYIQAPGKERELVAAISIGGVSTYYADSVKGRFTISRDNAKNTVYLQMNSLKPEDTAVYYCAAYYSYVYYVGDSDDYWGQGTQVTVSS
low polyreactivity
